These data points were gathered from PubChem BioAssay.

Reported values of z-score for individual entries
Assay: DUSP6 inhibitors restoring Erk phosphorylation by chemical complementation, primary imaging in DUSP6-transfected HeLa (AID 609)
Details: HeLa MKP-3 transfected, phospho-Erk imaging KS statistic; measured here: cell density z-score; at 10 µM; cells stimulated with TPA for 15 min

compound | z-score
c1ccc2c(c1)NC(c1ccncc1)n1c-2nc2ccccc21 (centres undefined) | -1.27
O=C(c1ccco1)N1CCN(CCOCCOc2cccc3ccccc23)CC1 | -1.67
CSc1nc(NC(C)=O)nc(C)c1Cl | -0.722
COc1cccc(C2/C(=C(/O)c3cnn(-c4ccccc4)c3C)C(=O)C(=O)N2CCN(C)C)c1 (centres undefined) | 0.354
CC1(C)Cc2c(C#N)c(NCCc3ccccc3)nc(-c3ccco3)c2CO1 | 0.597
O=C(O)c1cc(-c2ccccc2)nc2ccccc12 | 0.461
COc1ccc(N2CCN(c3nc4c(c(=O)[nH]c(=O)n4C)n3CCCc3ccccc3)CC2)cc1 | 0.546
CCCSc1ccc2nc(NC(=O)OC)[nH]c2c1 | 0.0938
CCC1(C)Cc2c(sc3nc4n(c(=O)c23)CCS4)CO1 (centres undefined) | -1.93
Cc1c(Cl)cccc1Nc1ccccc1C(=O)O | -0.93
CC1(C)CC(=O)C(CCCN2C(=O)c3ccccc3C2=O)C(=O)C1 | -0.253
NS(=O)(=O)c1ccc(C(=O)O)cc1 | 1.84
O=C(O)CC(NC(=O)COc1ccc(Cl)cc1Cl)C(=O)O (centres undefined) | 0.18
COC(=O)CC1=NC(=O)CS1 | -1.27
Cc1ccc(C)c(OCc2nnc(NC(=O)c3ccco3)s2)c1 | -0.0885
N#Cc1c(-c2ccco2)cc(C2CC2)nc1N | -1.1
Cc1nc2sccn2c(=O)c1CCN1CCC(=C(c2ccccc2)c2ccc(F)cc2)CC1 | -1.15
COc1ccc(-n2c(SCC(N)=O)nc3sc4c(c3c2=O)CCN(C)C4)cc1 | -0.15
Cc1cc(/C=c2/sc3nc4ccccc4n3c2=O)c(C)n1-c1ccccn1 | 0.162
NS(=O)(=O)c1ccc(-c2ccc(C=NC3CCS(=O)(=O)C3)o2)cc1 (centres undefined) | -1.97
COc1ccc(C2N3CC4(C)CN2CC(C)(C3)C4O)cc1OC (centres undefined) | 0.441
CCCSC1=C(C#N)C(c2ccc(OC)cc2)C2=C(CC(C)(C)CC2=O)N1 (centres undefined) | 1.35
CCOC(=O)c1ccc(NC(=O)CCC(CC)C(=O)O)cc1 (centres undefined) | 1.04
Nc1cccc(C(=O)O)c1 | 1.14
